Consider the following compounds; for each one, report its MCH.
Organism: Rattus norvegicus
Test: Open TG-GATES - Regimen: Daily Repeat
Assay type: toxicity, organism-based, Sprague-Dawley
Parameters: regimen Daily Repeat, gender Male, age 6 weeks
Settings: in vivo, po, 0 mg/kg, […], tissue Blood, route gavage, dose level Control, time 7 day
Numbers only, in pg.

Solved cases (3 shown):
1. CCOc1ccc(NC(C)=O)cc1; 21.2
2. NC1=NC(=O)C(c2ccccc2)O1 (stereo not drawn); 21.6
3. COC(=O)C1=C(C)NC(C)=C(C(=O)OC)C1c1ccccc1[N+](=O)[O-]; 21

For each listed entry, give its MCH.
1. CN(C)CCC(c1ccc(Cl)cc1)c1ccccn1 (stereo not drawn)
2. CN1C(=O)CCS(=O)(=O)C1c1ccc(Cl)cc1 (stereo not drawn)
3. CNC(=C[N+](=O)[O-])NCCSCc1ccc(CN(C)C)o1
4. Nc1c2c(nc3ccccc13)CCCC2
5. CCCc1cc(=O)[nH]c(=S)[nH]1

1. 20.5
2. 22.1
3. 21.8
4. 21.2
5. 21.4

Hey, quick one: what's MCH for each of these?
1. Cc1nnc2n1-c1ccc(Cl)cc1C(c1ccccc1Cl)=NC2
2. Brc1ccccc1
3. CC(C)NNC(=O)c1ccncc1
4. CN/C(=N/CCSCc1nc[nH]c1C)NC#N
5. O=C(OC[C@H]1O[C@@H](OC(=O)c2cc(O)c(O)c(OC(=O)c3cc(O)c(O)c(O)c3)c2)[C@H](OC(=O)c2cc(O)c(O)c(OC(=O)c3cc(O)c(O)c(O)c3)c2)[C@@H](OC(=O)c2cc(O)c(O)c(OC(=O)c3cc(O)c(O)c(O)c3)c2)[C@@H]1OC(=O)c1cc(O)c(O)c(OC(=O)c2cc(O)c(O)c(O)c2)c1)c1cc(O)c(O)c(OC(=O)c2cc(O)c(O)c(O)c2)c1

1: 20.6; 2: 21.4; 3: 21; 4: 21.5; 5: 21.4

* * *

Species on record: Rattus norvegicus
Assay: Open TG-GATES - Regimen: Daily Repeat
Assay type: toxicity, organism-based, Sprague-Dawley
Parameters: regimen Daily Repeat, gender Male, age 6 weeks
Settings: in vivo, po, 1000 mg/kg, […], tissue Plasma, route gavage, dose level High, time 14 day
reportedProperty: gamma-GTP (IU/L)
One number for each entry, in IU/L.

The examples below pair each entry with its known result.
1) Cc1nnc2n1-c1ccc(Cl)cc1C(c1ccccc1Cl)=NC2; 1
2) CN/C(=N/CCSCc1nc[nH]c1C)NC#N; 1.8
3) CCOc1ccc(NC(C)=O)cc1; 1.4
4) CNC(=C[N+](=O)[O-])NCCSCc1ccc(CN(C)C)o1; 1.2
5) O=C(OC[C@H]1O[C@@H](OC(=O)c2cc(O)c(O)c(OC(=O)c3cc(O)c(O)c(O)c3)c2)[C@H](OC(=O)c2cc(O)c(O)c(OC(=O)c3cc(O)c(O)c(O)c3)c2)[C@@H](OC(=O)c2cc(O)c(O)c(OC(=O)c3cc(O)c(O)c(O)c3)c2)[C@@H]1OC(=O)c1cc(O)c(O)c(OC(=O)c2cc(O)c(O)c(O)c2)c1)c1cc(O)c(O)c(OC(=O)c2cc(O)c(O)c(O)c2)c1; 0.8

Give a short answer stating reported gamma-GTP for COC(=O)C1=C(C)NC(C)=C(C(=O)OC)C1c1ccccc1[N+](=O)[O-] . 1
